- assay target: T1, GEM (also listed as SEQ ID NOs 82, 106, 130, 141) peptide on HLA-A*11:01 (human)
- T1 peptide: AVFGAGGVGK
- assay text: cytokine release
reported property: binding result

binder	value observed
TCR 3 (TCR, V domains shown) Valpha: AQTVTQSQPEMSVQEAETVTLSCTYDTSESDYYLFWYKQPPSRQMILVIRQEAYKQQNATENRFSVNFQKAAKSFSLKISDSQLGDAAMYFCAYRSDGGATNKLIFGTGTLLAVQP Vbeta: EAQVTQNPRYLITVTGKKLTVTCSQNMNHEYMSWYRQDPGLGLRQIYYSMNVEVTDKGDVPEGYKVSRKEKRNFPLILESPSPNQTSLYFCASSLGAGGYNSPLHFGNGTRLTVT	no recognition
TCR 5 (TCR, V domains shown) Valpha: GEDVEQSLFLSVREGDSSVINCTYTDSSSTYLYWYKQEPGAGLQLLTYIFSNMDMKQDQRLTVLLNKKDKHLSLRIADTQTGDSAIYFCAERDAGNNRKLIWGLGTSLAVNP Vbeta: GAGVSQSPRYKVAKRGQDVALRCDPISGHVSLFWYQQALGQGPEFLTYFQNEAQLDKSGLPSDRFFAERPEGSVSTLKIQRTQQEDSAVYLCASSLEGGDTQYFGPGTRLTVL	no recognition
TCR 4 (TCR, V domains shown) Valpha: QKEVEQDPGPLSVPEGAIVSLNCTYSNSAFQYFMWYRQYSRKGPELLMYTYSSGNKEDGRFTAQVDKSSKYISLFIRDSQPSDSATYLCAMGALNSGAGSYQLTFGKGTKLSVIP Vbeta: KAGVTQTPRYLIKTRGQQVTLSCSPISGHRSVSWYQQTPGQGLQFLFEYFSETQRNKGNFPGRFSGRQFSNSRSEMNVSTLELGDSALYLCASSLSSGTGTEAFFGQGTRLTVV	no recognition

This collection of values is drawn from patent US20240091361A1.
